Consider the following compounds; for each one, report its pIC50.
system: K562; test: Antiproliferative activity against human K562 cells incubated for 48 hrs by MTT assay; assay type: functional, cell-based; conditions: K562, 48 h
Give bare numbers, as −log10 of the molar value.

1. COc1cc([C@@H]2c3cc4c(cc3[C@@H](n3cnc([N+](=O)[O-])c3)[C@H]3COC(=O)[C@H]23)OCO4)cc(OC)c1O ... 5.38

API: the following record is the query input.
get_value(item= COc1cc([C@@H]2c3cc4c(cc3[C@@H](O[C@@H]3O[C@@H]5CO[C@@H](C)O[C@H]5[C@H](O)[C@H]3O)[C@H]3COC(=O)[C@H]23)OCO4)cc(OC)c1O [ETOPOSIDE] , readout=pIC50) returns 6.74

# credit: ChEMBL document CHEMBL4818987
